Test system: Streptococcus mutans (ATCC33402)
experiment: Microtitre plate assay, IC90 determination
Type: cell-based
settings: 90% inhibitory concentration for bacterial growth, 37° C., resazurin fluorescence, read-out: IC90 (μg/ml) SMU 33402
readout_label: IC90 (µg/mL)

Please review the following examples before continuing.
COc1nc2c(C(O)(CCN(C)C)c3cc(F)cc(F)c3)cc(-c3cccnc3)cc2cc1-c1ccccc1 (centres unmarked)
2.1
CN(C)CCC(O)(c1cccs1)c1cc(Br)cc2cc(Cc3ccccc3)c(N3CCN(C)CC3)nc12 (centres unmarked)
14.6
CN(C)CCOc1nc2c(C(O)(CCN(C)C)c3ccccc3)cc(Br)cc2cc1Cc1ccccc1 (centres unmarked)
44.7
CN(C)CCC(O)(c1cc(F)cc(F)c1)c1cc(Br)cc2cc(-c3ccccc3)c(-n3ccnc3)nc12 (centres unmarked)
11.2
CN(C)CCC(O)(c1ccccc1)c1cc(Br)cc2cc(Cc3ccccc3)c(NCCC(c3ccccc3)c3ccccc3)nc12 (centres unmarked)
15.3
CN(C)CCC(O)(c1cccs1)c1cc(Br)cc2cc(Cc3ccccc3)c(N(C)C)nc12 (centres unmarked)
10.5
CN(C)CCC(O)(c1cc(F)cc(F)c1)c1cccc2nc(N(C)C)c(-c3ccccc3)cc12 (centres unmarked)
9.2
COc1nc2cccc(C(O)(CCN(C)C)c3cc(F)cc(F)c3)c2cc1-c1ccccc1 (centres unmarked)
9

a. COc1nc2c(C(O)(CCN(C)C)c3cc(F)cc(F)c3)cc(Br)cc2cc1Cc1ccccc1 (centres unmarked)
b. CC(=O)c1ccc(N2CCN(c3nc4c(C(O)(CCN(C)C)c5ccccc5)cc(Br)cc4cc3Cc3ccccc3)CC2)cc1 (centres unmarked)
Exercise: I'm curious, which of these has a smaller IC90 number: a or b ? Please identify the chosen entry by its label.
Key: a

I. COc1nc2cccc(C(O)(CCN(C)C)c3cc4ccccc4o3)c2cc1-c1ccccc1 (centres unmarked)
II. CN(C)CCC(O)(c1ccccc1)c1cc(Br)cc2cc(Cc3ccccc3)c(OCCN3CCCCC3)nc12 (centres unmarked)
Exercise: I'd appreciate it if you could identify which of I and II has the greater IC90. Please identify the chosen entry by its label.
Key: II
(II: 47.9 µg/mL, I: 9 µg/mL)

a. CN(C)CCC(O)(c1cccc2ccccc12)c1cc(Br)cc2cc(-c3ccccc3)c(-n3cncn3)nc12 (centres unmarked)
b. COc1nc2c(C(O)(CCN(C)C)c3ccccc3)cc(-c3cccnc3)cc2cc1Cc1ccccc1 (centres unmarked)
Exercise: I'm curious, which of these has a smaller IC90 number: a or b ? Please identify the chosen entry by its label.
Key: a
(a: 11.5 µg/mL, b: 40 µg/mL)

====

System: Streptococcus pneumoniae (ATCC6305)
experiment: Microtitre plate assay, IC90 determination
Format: cell-based
settings: 90% inhibitory concentration for bacterial growth, 37° C., resazurin fluorescence, read-out: IC90 (μg/ml) SPN 6305
readout_label: IC90 (µg/mL)

CN(C)CCC(O)(c1cc(F)cc(F)c1)c1ccc2nc(-c3cccnc3)cc(-c3ccccc3)c2c1 (stereo not shown) [Compound 42]
12.5

a. CN(C)CCC(O)(c1cccc2ccccc12)c1cc(Br)cc2cc(Cc3ccccc3)c(N3CCN(c4n[nH]c5ccccc45)CC3)nc12 (stereo not shown) [Compound 26]
b. COc1nc2cccc(C(O)(CCN(C)C)c3cccc4ccccc34)c2cc1-c1ccccc1 (stereo not shown) [Compound 2]
c. CN(C)CCC(O)(c1ccccc1)c1cc(Br)cc2cc(Cc3ccccc3)c(NCCC(c3ccccc3)c3ccccc3)nc12 (stereo not shown) [Compound 59]
Exercise: Hi! Can you put these in order of IC90, lowest number first? Provide the ranking by listing each label in its place in the requested order.
Key: a, b, c
(a: 3.6 µg/mL, b: 11.6 µg/mL, c: 17.2 µg/mL)
